Data origin, for the record: patent US11827701B2

target: T1, eukaryotically produced human IL-6 (Homo sapiens, UniProt P05231); experiment: Surface plasmon resonance (Biacore), eukaryotically produced human IL-6 coated on CM5 chip; format: binding; conditions: euk; periplasmic fractions, 29B11 chain shuffled
T1 construct: purchased Humanzyme HZ-1044; host or cells: Human Embryonic kidney cells
T1 sequence (P05231 30-212): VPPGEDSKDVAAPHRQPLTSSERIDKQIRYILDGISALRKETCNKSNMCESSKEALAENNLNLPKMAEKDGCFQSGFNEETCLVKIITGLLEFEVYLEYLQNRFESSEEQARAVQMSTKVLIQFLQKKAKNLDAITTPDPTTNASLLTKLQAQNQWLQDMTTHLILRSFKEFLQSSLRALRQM
ka less than 400000 M⁻¹ s⁻¹ is TRUE; ka greater than or equal to 400000 M⁻¹ s⁻¹ is FALSE.

{"molecule": "55E2b: 29B11 chain shuffled Fab, periplasmic fraction (antibody, V domains shown) VH: EVQLVESGGGLVQPGGSLRLSCAASGFTFSSYAMSWVRQAPGKGLEWVSRISSGGISTYYADSVKGRFTISRDNAKNTLYLQMNSLKPEDTAVYYCVRYAWGVQWAFDFWGQGTQVTVSS VL: AQSVLTQPPSVSGSPGKTVTISCAGTSSDVGYGNYVSWYQQLPGMAPKLLIYDVNKRASGIADRFSGSKFANTASLTISGLQSEDEADYYCASYKRGDNAVFGGGTKLTVLG", "answer.label": "FALSE"}
{"molecule": "47C2 (R4): 29B11 chain shuffled Fab, periplasmic fraction (antibody, listed as Lama glama, V domains shown) VH: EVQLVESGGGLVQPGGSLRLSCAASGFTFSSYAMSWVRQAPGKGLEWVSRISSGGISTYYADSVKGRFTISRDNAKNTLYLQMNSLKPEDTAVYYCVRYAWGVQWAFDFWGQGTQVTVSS VL: ALSYDLTQPPSVSGSPGKTVTISCAGTSSDVGYGNYVSWYQQLPGMAPKILIYDVNKRASGIADRFSGSKSGNTASLTISGLQSEDEADYYCASYRRGETIVFGGGTHLTVLG", "answer.label": "FALSE"}
{"molecule": "29B11: antagonistic IL-6-specific Fab clone from immunized llama (antibody, listed as Lama glama, V domains shown) VH: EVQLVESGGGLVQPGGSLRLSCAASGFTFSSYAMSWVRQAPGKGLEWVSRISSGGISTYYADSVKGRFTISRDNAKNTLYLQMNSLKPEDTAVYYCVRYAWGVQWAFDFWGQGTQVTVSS VL: QSVLTQPPSVSGSPGQTVTISCAGTSEDVGYGNYVSWYQQLPGMAPKLLIYDVNKRASGIADRFSGSKSGNTASLTISGLQSEDEADYYCASYRRTIDNIFGGGTHLTVLG", "answer.label": "TRUE"}
{"molecule": "55H1c: 29B11 chain shuffled Fab, periplasmic fraction (antibody, V domains shown) VH: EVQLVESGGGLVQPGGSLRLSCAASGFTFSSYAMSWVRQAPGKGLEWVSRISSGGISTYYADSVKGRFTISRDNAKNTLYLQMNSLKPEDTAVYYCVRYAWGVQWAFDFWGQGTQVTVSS VL: AQSVVTQPPSVSGSPGKTVTISCAGTSSDVGYGNYVSWYQQLPGMAPKLLIYDVSKRASGIADRFSGSKSGNTASLTISGLQSEDEADYVCASYRRGGTAVFGGGTHLTVLG", "answer.label": "FALSE"}

Request: Hello, is ka of the following molecule strictly smaller than 400000 M⁻¹ s⁻¹? 55C1a: 29B11 chain shuffled Fab, periplasmic fraction (antibody, V domains shown) VH: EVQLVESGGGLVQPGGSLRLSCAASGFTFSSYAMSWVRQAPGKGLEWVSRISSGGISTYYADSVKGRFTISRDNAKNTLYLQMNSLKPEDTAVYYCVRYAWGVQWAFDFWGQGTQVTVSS VL: ALNFMLTQPPSVSGSPGKTVTISCAGTSSDVGYGNYVSWYQQLPGTAPKLLIYNVNKRASGITDRFSGSKSGNTASLTISGLQSEDEADYYCASYRTGDNAAFGGGTKLTVLG
Result: FALSE
